System: 695427-040-R-J1-PDC complex spheroid viability
method-description: Anticancer human tumor 695427-040-R-J1-PDC patient-derived colon adenocarcinoma cell line growth inhibition [RAS]
experimental-context: second compound 0.3 µM; first compound 10 µM; hits give low values
reported-endpoint: viability, T/C

- compound: "CC1(O)CCCC1n1c(=O)c(C(F)F)cc2cnc(NC3CCN(S(C)(=O)=O)CC3)nc21 (centres undefined) + CCn1c(-c2cc(N3CCN(C)CC3)cnc2C(C)OC)c2c3cc(ccc31)-c1csc(n1)CC(NC(=O)C1CC1C)C(=O)N1CCCC(N1)C(=O)OCC(C)(C)C2"
  reported-endpoint: "viability, T/C"
  assay-value: "25.2%"
- compound: "NC1c2ccccc2OC12CCN(c1cnc3c(N4CCCc5ncccc54)n[nH]c3n1)CC2 (centres undefined) + CCn1c(-c2cc(N3CCN(C)CC3)cnc2C(C)OC)c2c3cc(ccc31)-c1csc(n1)CC(NC(=O)C1CC1C)C(=O)N1CCCC(N1)C(=O)OCC(C)(C)C2"
  reported-endpoint: "viability, T/C"
  assay-value: "15.5%"
- compound: "NC1c2ccccc2OC12CCN(c1cnc3c(N4CCCc5ncccc54)n[nH]c3n1)CC2 (centres undefined) + CCn1c(-c2cccnc2C(C)OC)c2c3cc(ccc31)N1CCOC(CC(NC(=O)C(C(C)C)N(C)C(=O)C3(F)CCN(C(=O)C#CC(C)(C)N(C)C)CC3)C(=O)N3CCCC(N3)C(=O)OCC(C)(C)C2)C1"
  reported-endpoint: "viability, T/C"
  assay-value: "27.1%"
- compound: "CC(Nc1ccc2c(c1)OCCn1cc(N3C(=O)OCC3C(F)F)nc1-2)C(N)=O (centres undefined) + CCn1c(-c2cc(N3CCN(C)CC3)cnc2C(C)OC)c2c3cc(ccc31)-c1csc(n1)CC(NC(=O)C1CC1C)C(=O)N1CCCC(N1)C(=O)OCC(C)(C)C2"
  reported-endpoint: "viability, T/C"
  assay-value: "13.7%"

----------
System: 695427-040-R-J1-PDC complex spheroid viability
method-description: Anticancer human tumor 695427-040-R-J1-PDC cell line growth inhibition [RAS];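 note: viability read after seven days of drug exposure; 100% = DMSO vehicle control viability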
experimental-context: second compound 0.00949 µM; first compound 0.0316 µM; hits give low values

- compound: "Cc1nc(N2CCC3(CC2)COC(C)C3N)c(CO)nc1Sc1ccnc(N)c1Cl (configuration not stated) + CCn1c(-c2cc(N3CCN(C)CC3)cnc2C(C)OC)c2c3cc(ccc31)-c1csc(n1)CC(NC(=O)C1CC1C)C(=O)N1CCCC(N1)C(=O)OCC(C)(C)C2"
  output-unit: "%"
  viability, T/C: 71
- compound: "NC1c2ccccc2OC12CCN(c1cnc3c(N4CCCc5ncccc54)n[nH]c3n1)CC2 (configuration not stated) + CCn1c(-c2cccnc2C(C)OC)c2c3cc(ccc31)N1CCOC(CC(NC(=O)C(C(C)C)N(C)C(=O)C3(F)CCN(C(=O)C#CC(C)(C)N(C)C)CC3)C(=O)N3CCCC(N3)C(=O)OCC(C)(C)C2)C1"
  output-unit: "%"
  viability, T/C: 95.2

----------
Tested on: 695427-040-R-J1-PDC complex spheroid viability
method-description: Anticancer human tumor 695427-040-R-J1-PDC cell line growth inhibition [RAS]; active = viability on the fitted dose curve at most 10% of control; inactive = the rest;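 note: viability read after seven days of drug exposure; 100% = DMSO vehicle control viability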
experimental-context: second compound 0.0949 µM; first compound 0.1 µM
Classes used: active, inactive

- compound: "C[C@@H](NC(=O)c1ncnc(N)c1Cl)c1ncc(C(=O)Nc2cc(C(F)(F)F)c(Cl)cn2)s1 + CCn1c(-c2cc(N3CCN(C)CC3)cnc2C(C)OC)c2c3cc(ccc31)-c1csc(n1)CC(NC(=O)C1CC1C)C(=O)N1CCCC(N1)C(=O)OCC(C)(C)C2"
  qualitative-label: "inactive"
- compound: "CCN1CCN(Cc2ccc(Nc3ncc(F)c(-c4cc(F)c5nc(C)n(C(C)C)c5c4)n3)nc2)CC1 + CCn1c(-c2cccnc2C(C)OC)c2c3cc(ccc31)N1CCOC(CC(NC(=O)C(C(C)C)N(C)C(=O)C3(F)CCN(C(=O)C#CC(C)(C)N(C)C)CC3)C(=O)N3CCCC(N3)C(=O)OCC(C)(C)C2)C1"
  qualitative-label: "inactive"
- compound: "O=C(c1ccc(F)c(F)c1Nc1ccc(I)cc1F)N1CC(O)([C@@H]2CCCCN2)C1 + CCn1c(-c2cc(N3CCN(C)CC3)cnc2C(C)OC)c2c3cc(ccc31)-c1csc(n1)CC(NC(=O)C1CC1C)C(=O)N1CCCC(N1)C(=O)OCC(C)(C)C2"
  qualitative-label: "active"
- compound: "Cc1nc(N2CCC3(CC2)COC(C)C3N)c(CO)nc1Sc1ccnc(N)c1Cl (centres undefined) + CCn1c(-c2cc(N3CCN(C)CC3)cnc2C(C)OC)c2c3cc(ccc31)-c1csc(n1)CC(NC(=O)C1CC1C)C(=O)N1CCCC(N1)C(=O)OCC(C)(C)C2"
  qualitative-label: "inactive"
